- Assay Target: hMCR-1 (Homo sapiens, UniProt Q01726)
- Construct: endogenous in cells; host or cells: HBL human melanoma cell line
- Sequence (Q01726 whole entry): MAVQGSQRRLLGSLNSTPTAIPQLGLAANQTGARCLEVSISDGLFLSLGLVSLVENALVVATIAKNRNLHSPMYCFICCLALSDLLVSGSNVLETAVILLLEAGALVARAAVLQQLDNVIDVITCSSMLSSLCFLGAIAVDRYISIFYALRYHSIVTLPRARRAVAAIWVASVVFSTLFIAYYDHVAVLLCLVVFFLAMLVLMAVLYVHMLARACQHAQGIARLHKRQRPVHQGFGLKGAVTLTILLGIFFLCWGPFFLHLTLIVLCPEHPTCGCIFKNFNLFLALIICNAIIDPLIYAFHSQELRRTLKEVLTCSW
- Test Description: Assay for agonist activity: cAMP accumulation in HBL human melanoma cells
- Format: cell-based
- Experimental Conditions: compared to reference agonist NDP-α-MSH, read-out: MC-1 Emax (average; cAMP HBL)
Where a SMILES comes first, the peptide text is derived from it. [ ]: non-standard residue; d: D form. Nle = CCCC[C@H](N)C(=O)O
Measured Endpoint: Emax

In the examples that follow, each entry is paired with its recorded Emax.
CCCC[C@H](NC(C)=O)C(=O)N[C@@H](C)C(=O)N[C@@H](Cc1c[nH]cn1)C(=O)N[C@H](Cc1ccccc1)C(=O)N[C@@H](C)C(=O)N[C@@H](C)C(=O)N[C@@H](Cc1c[nH]c2ccccc12)C(N)=O [Example 9.16, Ac-Nle-Ala-His-D-Phe-Ala-Ala-Trp-NH2] (Ac-[Nle]AH[dF]AAW-NH2) ... 99%
CCCC[C@H](NC(C)=O)C(=O)N[C@@H](C)C(=O)N[C@@H](Cc1c[nH]cn1)C(=O)N[C@H](Cc1ccccc1)C(=O)N[C@@H](CCCNC(=N)N)C(=O)N1CCC[C@H]1C(=O)N[C@@H](Cc1c[nH]c2ccccc12)C(N)=O [Example 9.2, Ac-Nle-Ala-His-D-Phe-Arg-Pro-Trp-NH2] (Ac-[Nle]AH[dF]RPW-NH2) ... 78%
CCCC[C@H](NC(C)=O)C(=O)N[C@@H](Cc1c[nH]cn1)C(=O)N[C@H](Cc1ccccc1)C(=O)N[C@@H](CCCNC(=N)N)C(=O)N[C@@H](C)C(=O)N[C@@H](Cc1c[nH]c2ccccc12)C(N)=O [Example 9.3, Ac-Nle-His-D-Phe-Arg-Ala-Trp-NH2] (Ac-[Nle]H[dF]RAW-NH2) ... 95%
CCCC[C@H](NC(C)=O)C(=O)N[C@@H](C)C(=O)N[C@@H](CCCNC(=N)N)C(=O)N[C@H](Cc1ccccc1)C(=O)N[C@@H](CCCNC(=N)N)C(=O)N[C@@H](C)C(=O)N[C@@H](Cc1c[nH]c2ccccc12)C(N)=O [Example 9.18, Ac-Nle-Ala-Arg-D-Phe-Arg-Ala-Trp-NH2] (Ac-[Nle]AR[dF]RAW-NH2) ... 106%
CCCC[C@H](NC(C)=O)C(=O)N[C@@H](C)C(=O)N[C@@H](Cc1c[nH]cn1)C(=O)N[C@H](Cc1ccccc1)C(=O)N[C@@H](CCCNC(=N)N)C(=O)N[C@@H](C)C(=O)N[C@@H](Cc1c[nH]c2ccccc12)C(N)=O [Example 9.1, Ac-Nle-Ala-His-D-Phe-Arg-Ala-Trp-NH2] (Ac-[Nle]AH[dF]RAW-NH2) ... 96%

// query Provide only the value of recorded Emax for CCCC[C@H](NC(C)=O)C(=O)N[C@@H](C)C(=O)N[C@@H](Cc1c[nH]cn1)C(=O)N[C@H](Cc1ccccc1)C(=O)N[C@@H](CCCNC(=N)N)C(=O)N1CCC[C@H]1C(=O)N[C@H](Cc1c[nH]c2ccccc12)C(N)=O [Example 9.13, Ac-Nle-Ala-His-D-Phe-Arg-Pro-D-Trp-NH2] (Ac-[Nle]AH[dF]RP[dW]-NH2)
// result 90%

// query Provide only the value of recorded Emax for CCCC[C@H](NC(C)=O)C(=O)N[C@@H](C)C(=O)N[C@@H](C)C(=O)N[C@H](Cc1ccccc1)C(=O)N[C@@H](CCCNC(=N)N)C(=O)N[C@@H](C)C(=O)N[C@@H](Cc1c[nH]c2ccccc12)C(N)=O [Example 9.17, Ac-Nle-Ala-Ala-D-Phe-Arg-Ala-Trp-NH2] (Ac-[Nle]AA[dF]RAW-NH2)
// result 94%

// query Provide only the value of recorded Emax for CCCC[C@H](NC(C)=O)C(=O)N[C@@H](C)C(=O)N[C@@H](Cc1c[nH]cn1)C(=O)N[C@@H](Cc1ccccc1)C(=O)N[C@@H](CCCNC(=N)N)C(=O)NCC(=O)N[C@@H](Cc1c[nH]c2ccccc12)C(N)=O [Example 9.7, Ac-Nle-Ala-His-Phe-Arg-Gly-Trp-NH2] (Ac-[Nle]AHFRGW-NH2)
// result 75%
